- TARGET DESC: recombinant 5-Lox (Homo sapiens)
- Sequence (P09917 whole entry): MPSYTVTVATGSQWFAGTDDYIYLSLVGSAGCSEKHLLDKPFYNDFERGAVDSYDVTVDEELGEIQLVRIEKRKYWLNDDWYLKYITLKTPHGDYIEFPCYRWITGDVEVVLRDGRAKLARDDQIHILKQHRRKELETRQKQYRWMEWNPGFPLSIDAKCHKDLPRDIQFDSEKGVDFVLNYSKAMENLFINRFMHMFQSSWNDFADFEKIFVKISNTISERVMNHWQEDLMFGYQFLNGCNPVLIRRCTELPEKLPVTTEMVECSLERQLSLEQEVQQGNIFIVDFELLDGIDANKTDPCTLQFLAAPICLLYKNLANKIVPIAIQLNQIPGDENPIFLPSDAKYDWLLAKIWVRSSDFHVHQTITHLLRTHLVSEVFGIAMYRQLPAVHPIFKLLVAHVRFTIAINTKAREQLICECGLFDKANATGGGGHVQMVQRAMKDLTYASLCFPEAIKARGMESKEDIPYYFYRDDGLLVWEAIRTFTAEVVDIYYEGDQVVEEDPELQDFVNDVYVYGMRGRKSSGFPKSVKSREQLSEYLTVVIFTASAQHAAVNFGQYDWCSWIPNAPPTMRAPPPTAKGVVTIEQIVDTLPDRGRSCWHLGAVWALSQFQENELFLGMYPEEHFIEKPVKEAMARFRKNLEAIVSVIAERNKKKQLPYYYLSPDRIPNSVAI
- PROTOCOL DESCRIPTION: Assay for 5-Lipoxygenase Activity
- TEST CONDITIONS: arachidonic acid, absorbance at 236 nm (AUC), range stated for the group of compounds tested, read-out: 5-1, poxygenase inhibition IC50
pIC50: −log10 of the molar value.
Measured pIC50 values are reported for all entries that follow.

Here's what some known entries look like.
* CC1(C)OCC(C2OC3OC(C)(C)OC3C2NC(=O)Cc2ccccc2C(F)(F)F)O1 (stereo not drawn) [Compound No. 80] | 5.00 to 6.52
* CC1(C)O[C@H]2O[C@H]([C@H]3COC(C)(C)O3)[C@@H](NC(=S)Nc3ccc(Cl)c(Cl)c3)[C@H]2O1 [Compound No. 60] | 5.00 to 6.52
* CC1(C)OCC(C2OC3OC(C)(C)OC3C2NC(=S)Nc2ccc(F)cc2)O1 (stereo not drawn) [Compound No. 55] | 5.00 to 6.52
* CC1(C)O[C@H]2O[C@H]([C@H]3COC(C)(C)O3)[C@@H](NC(=S)Nc3ccccc3[N+](=O)[O-])[C@H]2O1 [Compound No. 67] | 5.00 to 6.52
* CC1(C)OCC(C2OC3OC(C)(C)OC3C2NC(=S)Nc2ccc(C#N)cc2)O1 (stereo not drawn) [Compound No. 68] | 5.00 to 6.52

Given CC1(C)OCC(C2OC3OC(C)(C)OC3C2NC(=O)Cc2ccc(Cl)c(Cl)c2)O1 (stereo not drawn) [Compound No. 100] , state its recorded pIC50.
5.00 to 6.52

What measured pIC50 goes with CC1(C)OCC(C2OC3OC(C)(C)OC3C2NC(=S)Nc2ccc(OCc3ccccc3)cc2)O1 (stereo not drawn) [Compound No. 63] ?
5.00 to 6.52

For the molecule CC1(C)OCC(C2OC3OC(C)(C)OC3C2NC(=O)Cc2cccc(Cl)c2)O1 (stereo not drawn) [Compound No. 84] , what pIC50 is on record?
5.00 to 6.52

Param item = CC1(C)OCC(C2OC3OC(C)(C)OC3C2NC(=S)Nc2ccccc2F)O1 (stereo not drawn) [Compound No. 103] ; retrieve measured pIC50.
5.00 to 6.52
